Target: human H4 receptor (Homo sapiens)
Construct: expressed in transfected cells
Sequence (Q9H3N8 whole entry): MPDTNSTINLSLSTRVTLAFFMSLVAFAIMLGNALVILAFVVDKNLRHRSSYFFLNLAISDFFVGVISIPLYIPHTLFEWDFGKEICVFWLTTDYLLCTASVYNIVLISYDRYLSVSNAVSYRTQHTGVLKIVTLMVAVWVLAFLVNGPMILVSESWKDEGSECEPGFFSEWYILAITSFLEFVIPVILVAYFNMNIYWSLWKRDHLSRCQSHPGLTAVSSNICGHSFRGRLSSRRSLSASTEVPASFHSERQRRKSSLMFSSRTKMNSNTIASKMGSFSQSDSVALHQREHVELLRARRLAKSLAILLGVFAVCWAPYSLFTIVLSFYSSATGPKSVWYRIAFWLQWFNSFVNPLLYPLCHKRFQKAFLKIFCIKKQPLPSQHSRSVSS
Test: [3H]Histamine binding on membranes of CHO cells stably expressing human H4 receptor
property: Ki or IC50 activity class

These solved cases illustrate the format of a correct answer.
>>> endpointresult("CN1CCC(OC(c2ccc3occc3c2)c2nc3ccccc3s2)CC1 (centres unmarked)")
"< 300 nM"
>>> endpointresult("CN1CCC(OC(c2cccc(SCCNC(=N)N)c2)c2nc3ccccc3[nH]2)CC1 (centres unmarked)")
"< 30 nM"
>>> endpointresult("CN1CCC(OC(c2cccc(SCCNC3=NCCN3)c2)c2nc3ccccc3[nH]2)CC1 (centres unmarked)")
"< 1000 nM"
>>> endpointresult("CN1CCC(OC(c2cccc(N3CCC(N(C)C)C3)c2)c2nc3ccccc3s2)CC1 (centres unmarked)")
"< 30 nM"
>>> endpointresult("Cc1cc(F)c(C(OC2CCN(C)CC2)c2nc3ccccc3[nH]2)c(F)c1 (single isomer, unassigned) [Example 559]")
"< 30 nM"
>>> endpointresult("CCCNC(=O)c1cccc(C(OC2CCN(C)CC2)c2nc3ccccc3s2)c1 (centres unmarked)")
"< 30 nM"
>>> endpointresult("Cc1cc(O)c(C(OC2CCN(C)CC2)c2nc3ccccc3[nH]2)c(F)c1 (centres unmarked)")
"< 30 nM"
>>> endpointresult("CN1CCC(OC(c2cccc(-c3ccn[nH]3)c2)c2nc3ccccc3s2)CC1 (centres unmarked)")
"< 30 nM"
>>> endpointresult("CN1CCC(OC(c2cccc(SCCNC(=N)N)c2)c2nc3cc(F)ccc3[nH]2)CC1 (centres unmarked)")
"< 30 nM"
>>> endpointresult("CSc1cccc(-c2cccc(C(OC3CCN(C)CC3)c3nc4ccccc4s3)c2)c1 (centres unmarked)")
"< 300 nM"

Req: What value of Ki or IC50 activity class has been reported for the following compound? CN1CCC(OC(c2cccc(-c3ccc(Cl)c(Cl)c3)c2)c2nc3ccccc3[nH]2)CC1 (centres unmarked)
Resp: < 300 nM

Req: Value lookup for Ki or IC50 activity class; key = CN1CCC(OC(c2nc3ccccc3[nH]2)c2cc(SCCCF)ccc2O)CC1 (centres unmarked)
Resp: < 30 nM

Req: Could you share which Ki or IC50 activity class value was measured for Cc1cccc(C(OC2CCN(C)CC2)c2nc3ccccc3[nH]2)c1 (centres unmarked) ?
Resp: < 300 nM

Req: Which value of Ki or IC50 activity class has been reported for c1csc(C(OC2CCNCC2)c2nc3ccccc3[nH]2)c1 (centres unmarked) in the records?
Resp: < 1000 nM

Req: Which Ki or IC50 activity class value is on record for CC(C)CCCOc1cccc(C(NC2CCN(C)CC2)c2nc3ccccc3[nH]2)c1 (centres unmarked) ?
Resp: < 300 nM

Req: Report Ki or IC50 activity class for CN1CCC(NC(c2cccc(OCc3ccccc3)c2)c2nc3ccccc3[nH]2)CC1 (centres unmarked) please.
Resp: < 30 nM

Req: Recorded Ki or IC50 activity class of COCCOc1cccc(C(OC2CCN(C)CC2)c2nc3ccccc3s2)c1 (centres unmarked) , please.
Resp: < 300 nM
